target: T1, M9; experiment: scFv-phage ELISA
T1 construct: also called PD1 mutant M9
Reported OD490 values follow for various binders
Just the number, please.

>  <binder>
PD1-44B5 (antibody, V domains shown, scFv-phage in the screening ELISA; later whole IgG) VH: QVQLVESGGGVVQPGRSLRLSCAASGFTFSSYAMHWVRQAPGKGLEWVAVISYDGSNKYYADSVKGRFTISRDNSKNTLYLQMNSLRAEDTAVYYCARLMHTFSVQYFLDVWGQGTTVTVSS VL: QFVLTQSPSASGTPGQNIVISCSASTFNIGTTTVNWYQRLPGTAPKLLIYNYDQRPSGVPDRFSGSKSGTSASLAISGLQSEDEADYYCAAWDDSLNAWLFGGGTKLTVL

>  <OD490>
3.7

$$$$
>  <binder>
PD1-45D6 (antibody, V domains shown, scFv-phage in the screening ELISA; whole IgG in the other assays) VH: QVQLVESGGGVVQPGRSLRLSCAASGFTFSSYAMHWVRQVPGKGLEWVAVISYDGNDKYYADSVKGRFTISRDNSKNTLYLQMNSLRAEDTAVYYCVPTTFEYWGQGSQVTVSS VL: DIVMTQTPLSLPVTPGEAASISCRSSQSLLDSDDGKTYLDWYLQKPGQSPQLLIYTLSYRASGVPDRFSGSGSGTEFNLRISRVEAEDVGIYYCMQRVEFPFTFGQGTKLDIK

>  <OD490>
3.8

$$$$

Qu. # input binder: PD1-32A6 (antibody, V domains shown, scFv-phage in the screening ELISA; later whole IgG) VH: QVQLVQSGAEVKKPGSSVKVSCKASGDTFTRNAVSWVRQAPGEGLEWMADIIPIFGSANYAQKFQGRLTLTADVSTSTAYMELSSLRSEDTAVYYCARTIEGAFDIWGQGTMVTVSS VL: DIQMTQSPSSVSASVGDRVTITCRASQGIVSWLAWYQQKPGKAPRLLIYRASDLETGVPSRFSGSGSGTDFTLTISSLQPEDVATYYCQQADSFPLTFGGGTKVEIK ; wanted: its OD490
Ans. 2.4
